- System: A. baumannii ATCC 19606
- Type: cell-based, Acinetobacter baumannii
- Condition description: ATCC 19606, 20 h
Recorded metric: MIC, AB

Answered examples (3):
NCCCC[C@H](NC(=O)CCN(Cc1ccc(F)cc1)C(=O)[C@H](CCCCN)NC(=O)CCN(Cc1ccc(F)cc1)C(=O)[C@H](CCCCN)NC(=O)CCN(Cc1ccc(F)cc1)C(=O)[C@H](CCCCN)NC(=O)CCN(Cc1ccc(F)cc1)C(=O)[C@H](CCCCN)NC(=O)CCN(Cc1ccc(F)cc1)C(=O)[C@H](CCCCN)NC(=O)CCOCCOCCOCCOCCN)C(=O)N(CCC(N)=O)Cc1ccc(F)cc1 [Compound 3, H-sPEG4-[X]6-NH2] = 4 to 8 µg/mL
NCCCC[C@H](NC(=O)CCN(Cc1ccc(F)cc1)C(=O)[C@H](CCCCN)NC(=O)CCN(Cc1ccc(F)cc1)C(=O)[C@H](CCCCN)NC(=O)COCCN)C(=O)N(CCC(=O)NCCOCC(=O)N[C@@H](CCCCN)C(=O)N(CCC(=O)N[C@@H](CCCCN)C(=O)N(CCC(=O)N[C@@H](CCCCN)C(=O)N(CCC(=O)NCCOCC(N)=O)Cc1ccc(F)cc1)Cc1ccc(F)cc1)Cc1ccc(F)cc1)Cc1ccc(F)cc1 [Compound 11, H-sPEG1-[X]3-sPEG1-[X]3-sPEG1-NH2] = 4 to 8 µg/mL
NCCCC[C@H](NC(=O)CCN(Cc1ccc(F)cc1)C(=O)[C@H](CCCCN)NC(=O)CCN(Cc1ccc(F)cc1)C(=O)[C@H](CCCCN)NC(=O)CCN(Cc1ccc(F)cc1)C(=O)[C@H](CCCCN)NC(=O)CCN(Cc1ccc(F)cc1)C(=O)[C@H](CCCCN)NC(=O)CCN(Cc1ccc(F)cc1)C(=O)[C@H](CCCCN)NC(=O)COCCOCCN)C(=O)N(CCC(=O)NCCOCCOCC(N)=O)Cc1ccc(F)cc1 [Compound 4, H-sPEG2-[X]6-sPEG2-NH2] = 4 µg/mL

Give A. baumannii ATCC 19606 MIC, AB for NCCCC[C@H](NC(=O)CCN(Cc1ccc(F)cc1)C(=O)[C@H](CCCCN)NC(=O)CCN(Cc1ccc(F)cc1)C(=O)[C@H](CCCCN)NC(=O)CCOCCOCCOCCOCCN)C(=O)N(CCC(=O)NCCOCCOCCOCCOCCC(=O)N[C@@H](CCCCN)C(=O)N(CCC(=O)N[C@@H](CCCCN)C(=O)N(CCC(=O)N[C@@H](CCCCN)C(=O)N(CCC(=O)NCCOCCOCCOCCOCCC(N)=O)Cc1ccc(F)cc1)Cc1ccc(F)cc1)Cc1ccc(F)cc1)Cc1ccc(F)cc1 [Compound 14, H-sPEG4-[X]3-sPEG4-[X]3-sPEG4-NH2] 16 µg/mL

How about NCCCC[C@H](NC(=O)CCN(Cc1ccc(F)cc1)C(=O)[C@H](CCCCN)NC(=O)CCN(Cc1ccc(F)cc1)C(=O)[C@H](CCCCN)NC(=O)CCOCCOCCOCCOCCNC(=O)CCN(Cc1ccc(F)cc1)C(=O)[C@H](CCCCN)NC(=O)CCN(Cc1ccc(F)cc1)C(=O)[C@H](CCCCN)NC(=O)CCN(Cc1ccc(F)cc1)C(=O)[C@@H](N)CCCCN)C(=O)N(CCC(N)=O)Cc1ccc(F)cc1 [Compound 9, H-[X]3-sPEG4-[X]3-NH2] ? 4 to 8 µg/mL

How about NCCCC[C@H](NC(=O)CCN(Cc1ccc(F)cc1)C(=O)[C@H](CCCCN)NC(=O)CCN(Cc1ccc(F)cc1)C(=O)[C@H](CCCCN)NC(=O)COCCOCCN)C(=O)N(CCC(=O)NCCOCCOCC(=O)N[C@@H](CCCCN)C(=O)N(CCC(=O)N[C@@H](CCCCN)C(=O)N(CCC(=O)N[C@@H](CCCCN)C(=O)N(CCC(=O)NCCOCCOCC(N)=O)Cc1ccc(F)cc1)Cc1ccc(F)cc1)Cc1ccc(F)cc1)Cc1ccc(F)cc1 [Compound 12, H-sPEG2-[X]3-sPEG2-[X]3-sPEG2-NH2] ? 8 to 16 µg/mL

How about NCCCC[C@H](NC(=O)CCN(Cc1ccc(F)cc1)C(=O)[C@H](CCCCN)NC(=O)CCN(Cc1ccc(F)cc1)C(=O)[C@H](CCCCN)NC(=O)COCCOCCOCCN)C(=O)N(CCC(=O)NCCOCCOCCOCC(=O)N[C@@H](CCCCN)C(=O)N(CCC(=O)N[C@@H](CCCCN)C(=O)N(CCC(=O)N[C@@H](CCCCN)C(=O)N(CCC(=O)NCCOCCOCCOCC(N)=O)Cc1ccc(F)cc1)Cc1ccc(F)cc1)Cc1ccc(F)cc1)Cc1ccc(F)cc1 [Compound 13, H-sPEG3-[X]3-sPEG3-[X]3-sPEG3-NH2] ? 8 to 16 µg/mL

The measurements presented in this section are drawn from paper PMC8268887.
